# Tested on: BT-474
# measurementNotes: normalised viability (% of control), CellTiter-Blue; higher = more viable cells (100 = DMSO, 0 = benzethonium chloride kill control)
# protocolConditions: incubation time: 72 h
parameter: normalised viability
The answer should read as a number with its unit following.

Examples from the recorded data:
- molecule: "CN1CCN(c2nc(C3=C(c4c[nH]c5ccccc45)C(=O)NC3=O)c3ccccc3n2)CC1 [Sotrastaurin] (1 nM)"
  parameter: "normalised viability"
  measuredValue: "116%"
- molecule: "N[C@@H](Cc1ccc(N(CCCl)CCCl)cc1)C(=O)O [Melphalan] (0.099 nM)"
  parameter: "normalised viability"
  measuredValue: "85.2%"
- molecule: "NC1(c2ccc(-c3nc4ccn5c(=O)[nH]nc5c4cc3-c3ccccc3)cc2)CCC1 [MK-2206] (0.1 nM)"
  parameter: "normalised viability"
  measuredValue: "115%"
- molecule: "O=NN(CCCl)C(=O)NC1CCCCC1 [Lomustine] (1 nM)"
  parameter: "normalised viability"
  measuredValue: "88%"
- molecule: "CCN(CC)CCOc1ccc(C(=C(Cl)c2ccccc2)c2ccccc2)cc1 [Clomifene] (1 nM)"
  parameter: "normalised viability"
  measuredValue: "95.6%"

Alright, here's another molecule for you.
Task: Recorded normalised viability for Cc1c(N)nc([C@H](CC(N)=O)NC[C@H](N)C(N)=O)nc1C(=O)N[C@H](C(=O)N[C@H](C)[C@@H](O)[C@H](C)C(=O)N[C@H](C(=O)NCCc1nc(-c2nc(C(=O)NCCC[S+](C)C)cs2)cs1)[C@@H](C)O)[C@@H](OC1OC(CO)C(O)C(O)C1OC1OC(CO)C(O)C(OC(N)=O)C1O)c1cnc[nH]1 (stereo partly specified) [Bleomycin] (1 nM) with BT-474, please?
Output: 84.4%

----------
# Test system: MDA-MB-436
# measurementNotes: normalised response (% of control), CellTiter-Glo; higher = more viable cells (100 = DMSO, 0 = benzethonium chloride kill control)
# protocolConditions: incubation time: 72 h
parameter: normalised response (%)
Give your result in % as a bare value.

Examples from the recorded data:
- molecule: "O=C(O)CC[C@H]1CC[C@@](c2cc(F)ccc2F)(S(=O)(=O)c2ccc(Cl)cc2)CC1 [MK-0752] (1000 nM)"
  normalised response, %: 105
- molecule: "CO[C@H]1C[C@@H]2CC[C@@H](C)[C@@](O)(O2)C(=O)C(=O)N2CCCC[C@H]2C(=O)O[C@H]([C@H](C)C[C@@H]2CC[C@@H](O)[C@H](OC)C2)CC(=O)[C@H](C)/C=C(\\C)[C@@H](O)[C@@H](OC)C(=O)[C@H](C)C[C@H](C)/C=C/C=C/C=C/1C [Sirolimus] (100 nM)"
  normalised response, %: 73.9
- molecule: "N[C@@H](Cc1ccc(N(CCCl)CCCl)cc1)C(=O)O [Melphalan] (12500 nM)"
  normalised response, %: 0.88
- molecule: "CC(C)n1nc(-c2ccc3oc(N)nc3c2)c2c(N)ncnc21 [INK128] (1000 nM)"
  normalised response, %: 45.8

Alright, here's another molecule for you.
Task: Recorded normalised response for Cc1c(C(=O)Nc2ccc(N3C[C@@H](C)O[C@@H](C)C3)nc2)cccc1-c1ccc(OC(F)(F)F)cc1 [Erismodegib] (10000 nM) , please?
Output: 78.6

----------
# Test system: BT-474
# measurementNotes: normalised response (% of control), CellTiter-Glo; higher = more viable cells (100 = DMSO, 0 = benzethonium chloride kill control)
# protocolConditions: incubation time: 72 h
parameter: normalised response (%)
Give your result in % as a bare value.

Examples from the recorded data:
- molecule: "Cn1nnc2c(C(N)=O)ncn2c1=O [Temozolomide] (10000 nM)"
  readoutUnit: "%"
  measuredValue: 91.2
- molecule: "Cc1cc2c(F)c(Oc3ncnn4cc(OC[C@@H](C)O)c(C)c34)ccc2[nH]1 [Brivanib] (1000 nM)"
  readoutUnit: "%"
  measuredValue: 108
- molecule: "NC(=O)c1cccc2cn(-c3ccc([C@@H]4CCCNC4)cc3)nc12 [MK-4827] (10000 nM)"
  readoutUnit: "%"
  measuredValue: 85.8
- molecule: "C[C@@H](C(=O)O)c1ccc(-c2ccccc2)c(F)c1 [Tarenflurbil] (10000 nM)"
  readoutUnit: "%"
  measuredValue: 95.2
- molecule: "O=C(c1cc(Cc2n[nH]c(=O)c3ccccc23)ccc1F)N1CCN(C(=O)C2CC2)CC1 [Olaparib] (10000 nM)"
  readoutUnit: "%"
  measuredValue: 67.5
- molecule: "CC(C)C[C@H](NC(=O)[C@H](CCc1ccccc1)NC(=O)CN1CCOCC1)C(=O)N[C@@H](Cc1ccccc1)C(=O)N[C@@H](CC(C)C)C(=O)[C@@]1(C)CO1 [Carfilzomib] (1000 nM)"
  readoutUnit: "%"
  measuredValue: 6.38
- molecule: "Cn1cc(C[C@@H](N)C(=O)O)c2ccccc21 [1-methyl-D-tryptophan] (5000 nM)"
  readoutUnit: "%"
  measuredValue: 96.4

Alright, here's another molecule for you.
Task: Recorded normalised response for CC/C(=C(\c1ccccc1)c1ccc(OCCN(C)C)cc1)c1ccccc1 [Tamoxifen] (10000 nM) , please?
Output: 69.3

----------
# Tested on: MCF-10A
# measurementNotes: normalised response (% of control), CellTiter-Glo; higher = more viable cells (100 = DMSO, 0 = benzethonium chloride kill control)
# protocolConditions: incubation time: 72 h
# key: entry, value: normalised response

Examples from the recorded data:
- compound: "CC(C)C(=O)Nc1ccc([N+](=O)[O-])c(C(F)(F)F)c1 [Flutamide] (10000 nM)"
  normalised response: "96.7%"
- compound: "Cc1c(N)nc([C@H](CC(N)=O)NC[C@H](N)C(N)=O)nc1C(=O)N[C@H](C(=O)N[C@H](C)[C@@H](O)[C@H](C)C(=O)N[C@H](C(=O)NCCc1nc(-c2nc(C(=O)NCCC[S+](C)C)cs2)cs1)[C@@H](C)O)[C@@H](OC1OC(CO)C(O)C(O)C1OC1OC(CO)C(O)C(OC(N)=O)C1O)c1cnc[nH]1 (some centres undefined) [Bleomycin] (10000 nM)"
  normalised response: "53%"
- compound: "CC(C)NC[C@@H](C(=O)N1CCN(c2ncnc3c2[C@H](C)C[C@H]3O)CC1)c1ccc(Cl)cc1 [GDC-0068] (10000 nM)"
  normalised response: "58.9%"
- compound: "Cn1nnc2c(C(N)=O)ncn2c1=O [Temozolomide] (10000 nM)"
  normalised response: "96.2%"
- compound: "CC[C@H](CC#N)OC(=O)N[C@@H](C)c1cccc(NC(=O)Nc2ccc(-c3cnco3)c(OC)c2)c1 [AVN944] (10000 nM)"
  normalised response: "58.9%"

Task: Recorded normalised response for CC(C)C[C@H](NC(=O)[C@H](CCc1ccccc1)NC(=O)CN1CCOCC1)C(=O)N[C@@H](Cc1ccccc1)C(=O)N[C@@H](CC(C)C)C(=O)[C@@]1(C)CO1 [Carfilzomib] (1000 nM) with MCF-10A, please?
Output: 0.46%

Task: Recorded normalised response for COc1cc2c(N3CCN(C(=O)Nc4ccc(OC(C)C)cc4)CC3)ncnc2cc1OCCCN1CCCCC1 [Tandutinib] (1000 nM) with MCF-10A, please?
Output: 87%

Task: Recorded normalised response for CCN(CC)CCOc1ccc(C(=C(Cl)c2ccccc2)c2ccccc2)cc1 [Clomifene] (10000 nM) with MCF-10A, please?
Output: 46.1%

Task: Recorded normalised response for COc1cc2c(Oc3ccc(NC(=O)C4(C(=O)Nc5ccc(F)cc5)CC4)cc3F)ccnc2cc1OCCCN1CCOCC1 [Foretinib] (1000 nM) with MCF-10A, please?
Output: 60.7%

----------
# System: DU-4475
# measurementNotes: normalised response (% of control), CellTiter-Glo; higher = more viable cells (100 = DMSO, 0 = benzethonium chloride kill control)
# protocolConditions: incubation time: 72 h
parameter: normalised response (%)
Give your result in % as a bare value.

- compound: "NC(=O)NO [Hydroxyurea] (10000 nM)"
  targetOrTestSystem: "DU-4475"
  normalised response (%): 100
- compound: "CC(C)NC[C@@H](C(=O)N1CCN(c2ncnc3c2[C@H](C)C[C@H]3O)CC1)c1ccc(Cl)cc1 [GDC-0068] (10 nM)"
  targetOrTestSystem: "DU-4475"
  normalised response (%): 105
- compound: "CCc1cnn2c(NCc3ccc[n+]([O-])c3)cc(N3CCCC[C@H]3CCO)nc12 [Dinaciclib] (100 nM)"
  targetOrTestSystem: "DU-4475"
  normalised response (%): 18.6
- compound: "CC/C(=C(\\c1ccccc1)c1ccc(OCCN(C)C)cc1)c1ccccc1 [Tamoxifen] (1 nM)"
  targetOrTestSystem: "DU-4475"
  normalised response (%): 98.6
- compound: "COc1cc2c(cc1-c1c(C)noc1C)ncc1[nH]c(=O)n([C@H](C)c3ccccn3)c12 [I-BET151] (1 nM)"
  targetOrTestSystem: "DU-4475"
  normalised response (%): 103
- compound: "CC(C)(C)Cn1c(N)nc2ccc(-c3[nH]c(C(C)(C)C)nc3-c3ccc(F)cc3)nc21 (10 nM)"
  targetOrTestSystem: "DU-4475"
  normalised response (%): 105

Task: Recorded normalised response for N[C@@H](Cc1ccc(N(CCCl)CCCl)cc1)C(=O)O [Melphalan] (1.25 nM) , please?
Output: 95.5

Task: Recorded normalised response for CC(C)n1nc(-c2ccc3oc(N)nc3c2)c2c(N)ncnc21 [INK128] (100 nM) , please?
Output: 66

Task: Recorded normalised response for CCN(CC)CCOc1ccc(C(=C(Cl)c2ccccc2)c2ccccc2)cc1 [Clomifene] (10 nM) , please?
Output: 103

Task: Recorded normalised response for CO[C@H]1C[C@@H]2CC[C@@H](C)[C@@](O)(O2)C(=O)C(=O)N2CCCC[C@H]2C(=O)O[C@H]([C@H](C)C[C@@H]2CC[C@@H](O)[C@H](OC)C2)CC(=O)[C@H](C)/C=C(\C)[C@@H](O)[C@@H](OC)C(=O)[C@H](C)C[C@H](C)/C=C/C=C/C=C/1C [Sirolimus] (0.1 nM) , please?
Output: 98.9

Task: Recorded normalised response for CN1CCc2c(c3ccccc3n2Cc2ccc(C(=O)NO)cc2)C1 [Tubastatin A] (1000 nM) , please?
Output: 96.5

Task: Recorded normalised response for CC(C)n1nc(-c2ccc3oc(N)nc3c2)c2c(N)ncnc21 [INK128] (0.1 nM) , please?
Output: 90.2
